These data points were gathered from paper PMC4258842.

- STUDY_TARGET: T1, FOXM1 DBD (GST fusion) (Homo sapiens, UniProt Q08050 222-360)
- T1 sequence: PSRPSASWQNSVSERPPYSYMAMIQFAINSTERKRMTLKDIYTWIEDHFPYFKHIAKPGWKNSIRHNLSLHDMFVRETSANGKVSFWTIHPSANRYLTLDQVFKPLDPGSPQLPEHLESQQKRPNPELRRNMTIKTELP
- METHOD_NOTES: EMSA
TEST_READOUT: pKd
Answers are plain numbers, as −log10 of the molar value.

# lookup: pKd of FOXM1 consensus DNA probe, 16 bp (dsDNA) DNA 1: AAACAAACAAACAATC DNA 2: GATTGTTTGTTTGTTT
6.52
